These measurements were taken from patent US11208400B2.

Target: human Npt2a (Homo sapiens)
Sequence (Q06495 1-639): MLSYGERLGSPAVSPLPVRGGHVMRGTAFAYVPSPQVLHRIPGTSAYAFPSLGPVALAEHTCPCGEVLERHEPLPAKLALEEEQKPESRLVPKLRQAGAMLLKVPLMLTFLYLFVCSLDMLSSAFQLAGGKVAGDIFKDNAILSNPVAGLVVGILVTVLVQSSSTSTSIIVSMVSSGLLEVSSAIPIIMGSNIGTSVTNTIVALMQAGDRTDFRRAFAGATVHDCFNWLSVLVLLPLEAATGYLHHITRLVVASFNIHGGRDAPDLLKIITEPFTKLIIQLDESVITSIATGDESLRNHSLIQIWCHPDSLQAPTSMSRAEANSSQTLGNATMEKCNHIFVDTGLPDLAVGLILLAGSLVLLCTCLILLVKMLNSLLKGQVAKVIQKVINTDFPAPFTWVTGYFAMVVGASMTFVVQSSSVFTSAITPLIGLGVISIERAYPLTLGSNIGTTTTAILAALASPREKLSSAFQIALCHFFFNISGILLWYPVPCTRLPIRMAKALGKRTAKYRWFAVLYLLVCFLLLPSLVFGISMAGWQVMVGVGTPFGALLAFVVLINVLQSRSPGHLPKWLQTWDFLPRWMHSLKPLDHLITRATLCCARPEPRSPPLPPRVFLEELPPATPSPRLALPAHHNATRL
Experiment: Npt2a activity cell based assay, membrane potential dye, CHO T-REx hNpt2a cells
Settings: doxycycline-induced, depolarization by sodium phosphate influx, average or median values if tested more than once
As shown below, each of these molecules has a reported IC50 value.
Reply with just the number (in nM).

Below are worked cases with known answers.
| smiles | IC50, nM |
| --- | --- |
| COCCn1nc(-c2ccc(C(F)F)cc2)c(C)c1Nc1cc(-n2nc(C)cc2C(F)F)ncn1 | 12 |
| CC(=O)Oc1c(C)nn(-c2cc(Nc3c(C)c(-c4ccc(F)cc4)nn3CC3CC3)ncn2)c1C | 3 |
| COc1c(Nc2cc(-n3nc(C)c4ccncc43)ncn2)n[nH]c1-c1ccc(C#N)cc1 | 86 |

Here is another molecule to look at.
Reported IC50 of `Cc1nn(-c2cc(Nc3c(C)c(-c4ccc(F)cc4)nn3CC3CC3)ncn2)c(C)c1C#N` : 16

----------
Target: human Npt2a (Homo sapiens, UniProt Q06495)
Assay: Npt2a activity cell based assay, membrane potential dye, CHO T-REx hNpt2a cells
Conditions: doxycycline-induced, depolarization by sodium phosphate influx, average or median values if tested more than once
observable: IC50

| molecule | tgt | observable | result |
| --- | --- | --- | --- |
| Cc1cc(C)n(-c2cc(Nc3nn(C)c(-c4ccc(Cl)cc4)c3C)ncn2)n1 [Example 355] | human Npt2a (Homo sapiens, UniProt Q06495) | IC50 | 20 nM |
| Cc1nn(-c2cc(Nc3c(C)c(-c4ccc(F)cc4)nn3C)ncn2)c(C(F)F)c1Cl [Example 139] | human Npt2a (Homo sapiens, UniProt Q06495) | IC50 | 130 nM |
| Cc1nn(-c2cc(Nc3nn(CC4CC4)c(-c4ccc(F)cc4)c3Cl)ncn2)c(C)c1C(C)(C)O [Example 160] | human Npt2a (Homo sapiens, UniProt Q06495) | IC50 | 1110 nM |
| CCOC(=O)c1c(C)nn(-c2cc(Nc3c(C)c(-c4ccc(Cl)cc4)nn3CC3CC3)ncn2)c1C [Example 314] | human Npt2a (Homo sapiens, UniProt Q06495) | IC50 | 9 nM |
| CCOC(=O)c1c(C)nn(-c2cc(Nc3[nH]nc(-c4ccc(F)cc4)c3C3CC3)ncn2)c1C [Example 15] | human Npt2a (Homo sapiens, UniProt Q06495) | IC50 | 72 nM |

Reported IC50 of Cc1nn(-c2cc(Nc3c(C)c(-c4ccc(C(F)F)cc4)nn3CC3CC3)ncn2)c(C)c1C(C)(C)O [Example 396] : 16 nM

Reported IC50 of Cc1c(Nc2cc(-n3cc(C(F)(F)F)cn3)ncn2)nn(C)c1-c1ccc(F)cc1 [Example 424] : 370 nM

Reported IC50 of Cc1ccc(-c2nn(CC3CC3)c(Nc3cc(-n4nc(C)cc4C)ncn3)c2C)cn1 [Example 529] : 2700 nM

----------
Molecular target: human Npt2a (Homo sapiens)
Test: Npt2a activity cell based assay, membrane potential dye, CHO T-REx hNpt2a cells
Settings: doxycycline-induced, depolarization by sodium phosphate influx, average or median values if tested more than once
observable: IC50

Below are worked cases with known answers.
| compound | observable | result |
| --- | --- | --- |
| COc1c(-c2ccc(F)cc2)nn(C)c1Nc1cc(-n2nc(C)cc2C)ncn1 | IC50 | 150 nM |
| Cc1nn(-c2cc(Nc3c(C)c(-c4ccc(C#N)cc4)nn3C)ncn2)c2c1C(C)(O)CC2 (racemic) | IC50 | 16 nM |
| Cc1nn(-c2cc(Nc3c(C)c(-c4ccc(C#N)cc4)nn3C)ncn2)c(C)c1C(O)C(F)(F)F (racemic) | IC50 | 70 nM |

Here is another compound to look at.
Reported IC50 of `Cc1cc(C)n(-c2cc(Nc3c(C)c(-c4ccc(C5CN(C(=O)OC(C)(C)C)C5)cc4)nn3C)ncn2)n1` : 660 nM

----------
As shown below, each of these molecules has a reported pIC50 value.
Molecular target: human Npt2a (Homo sapiens, UniProt Q06495)
Experiment: Npt2a activity cell based assay, membrane potential dye, CHO T-REx hNpt2a cells
Settings: doxycycline-induced, depolarization by sodium phosphate influx, average or median values if tested more than once
Please keep in mind that pIC50 is minus log10 of the molar concentration; only the number is needed.

Below are worked cases with known answers.
| molecule | tgt | pIC50 |
| --- | --- | --- |
| Cc1nn(-c2cc(Nc3c(C)c(-c4ccc(F)cc4)nn3CC3CC3)ncn2)c(C)c1C(O)C(F)(F)F (single isomer, unassigned) [Example 376] | human Npt2a (Homo sapiens, UniProt Q06495) | 8.10 |
| Cc1nn(-c2cc(Nc3nn(C)c(-c4ccc(C(F)(F)F)nc4)c3C)ncn2)c(C)c1Cl | human Npt2a (Homo sapiens, UniProt Q06495) | 8.14 |

Reported pIC50 of `Cc1cc(C(F)F)n(-c2cc(Nc3nn(C)c(-c4ccc(F)cc4)c3C3CC3)ncn2)n1` : 7.20

Reported pIC50 of `CCc1c(-c2ccc(C#N)cc2)nn(CC2CC2)c1Nc1cc(-n2nc(C)c(C(C)=O)c2C)ncn1` : 7.89

Reported pIC50 of Cc1nn(-c2cc(Nc3c(C)c(-c4ccc(F)cc4)nn3CC3CC3)ncn2)c(C)c1C(O)C1CC1 (racemic) [Example 405] : 7.85

----------
Target: human Npt2a (Homo sapiens, UniProt Q06495)
Construct: expressed in transfected cells
Sequence (Q06495 1-639): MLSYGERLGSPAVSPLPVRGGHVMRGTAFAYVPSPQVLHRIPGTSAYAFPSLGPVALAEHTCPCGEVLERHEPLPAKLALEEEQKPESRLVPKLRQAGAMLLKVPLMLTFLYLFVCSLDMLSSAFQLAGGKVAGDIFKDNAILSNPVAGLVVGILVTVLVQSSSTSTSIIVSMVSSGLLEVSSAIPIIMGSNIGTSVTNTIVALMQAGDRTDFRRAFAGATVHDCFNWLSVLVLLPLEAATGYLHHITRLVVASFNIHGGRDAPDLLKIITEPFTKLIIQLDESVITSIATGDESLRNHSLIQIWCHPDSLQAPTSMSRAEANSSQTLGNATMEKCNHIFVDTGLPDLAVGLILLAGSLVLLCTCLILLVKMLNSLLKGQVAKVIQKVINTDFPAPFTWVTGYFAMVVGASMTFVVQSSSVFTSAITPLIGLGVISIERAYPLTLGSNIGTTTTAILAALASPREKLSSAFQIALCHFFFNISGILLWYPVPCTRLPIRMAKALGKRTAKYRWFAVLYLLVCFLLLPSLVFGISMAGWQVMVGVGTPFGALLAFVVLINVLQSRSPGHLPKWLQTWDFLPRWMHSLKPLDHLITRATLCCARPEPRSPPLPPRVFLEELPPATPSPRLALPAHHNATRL
Assay: Npt2a activity cell based assay, membrane potential dye, CHO T-REx hNpt2a cells
Settings: doxycycline-induced, depolarization by sodium phosphate influx, average or median values if tested more than once
observable: pIC50
Please keep in mind that pIC50 is minus log10 of the molar concentration; only the number is needed.

Below are worked cases with known answers.
| compound | tgt | pIC50 |
| --- | --- | --- |
| Cc1nn(-c2cc(Nc3nn(C)c(-c4ccc(F)cc4)c3OC(F)F)ncn2)c(C)c1C(C)(C)O [Example 500] | human Npt2a (Homo sapiens, UniProt Q06495) | 7.28 |
| Cc1nn(-c2cc(Nc3c(C)c(-c4ccc(C#N)cc4)nn3CC3CC3)ncn2)c(C)c1C(O)C(F)(F)F (single isomer, unassigned) [Example 359] | human Npt2a (Homo sapiens, UniProt Q06495) | 7.82 |
| CCOC(=O)c1c(C)nn(-c2cc(Nc3nn(C)c(-c4ccc(C#N)cc4)c3C)ncn2)c1C [Example 299] | human Npt2a (Homo sapiens, UniProt Q06495) | 8.30 |
| Cc1c(-c2ccc(C#N)cc2)nn(CC2CC2)c1Nc1cc(-n2nc(C)c3cnccc32)ncn1 [Example 233] | human Npt2a (Homo sapiens, UniProt Q06495) | 7.54 |
| Cc1cc(C)n(-c2cc(Nc3c(Cl)c(-c4ccc(F)cc4F)nn3C)ncn2)n1 [Example 50] | human Npt2a (Homo sapiens, UniProt Q06495) | 6.80 |

Reported pIC50 of Cc1nn(-c2cc(Nc3nn(C)c(-c4ccc(F)cc4)c3OC(F)F)ncn2)c(C)c1C(F)(F)F [Example 469] : 8.30

Reported pIC50 of CC(=O)c1c(Nc2cc(-n3nc(C)cc3C)ncn2)nn(C)c1-c1ccc(F)cc1 [Example 82] : 5.82
